- System: Plasmodium berghei
- assay.details: Luciferase/luciferin-expressing antifolate-resistant parasites were used to infect a culture of HepG2 cells that were pre-incubated with compounds. Infected hepatocytes emit light due to the luciferase reaction. Assay results are presented as the percent inhibition of light emission compared to control. […]
- Type: functional
- condition.parameters: sporozoite, PBLUC_HILL_SLOPE 3.64, PBLUC_R_SQUARED 0.565, read-out: LUCIFERASE INFECTION ASSAY - IC50
experimental.readout: IC50 (nM)

- given.smiles: "CN(C)CC(=O)N1CCN(c2nc(/C=C/c3ccccc3)nc3sc4c(c23)CCCC4)CC1"
  tested.on: "Plasmodium berghei"
  unit.string: "nM"
  experimental.value: 2740
